# reported viability index; entries follow
Tested on: Plasmodium falciparum NF54 gametocytes
Assay: viability index relative to DMSO control (fraction); higher = less gametocyte killing
Conditions: gametocyte stage: Stage IV viability index; 12.5 µM; incubation time: 72 h
// keep it numeric: no unit symbol after the value

As a guide, the following entries are already answered.
smiles_input=CCOC(=O)C1(Cc2ccccc2)CCN(Cc2cccc(OC)c2O)CC1 assay_endpoint="viability index" observed_result=0.522
smiles_input=CCOc1cccc(C(=O)Nc2ccc(-c3nc4ccccc4[nH]3)cc2)c1 assay_endpoint="viability index" observed_result=0.894
smiles_input=CCOc1ccccc1NC(=O)CN1CCN(C(=O)c2ccco2)CC1 assay_endpoint="viability index" observed_result=0.959

input: Tell me reported viability index for `Cc1ccc(N2C3c4ccccc4N(S(=O)(=O)c4ccc(C)cc4)C2c2ccccc2N3S(=O)(=O)c2ccc(C)cc2)cc1` , tested with Plasmodium falciparum NF54 gametocytes.
output: 0.93

input: Tell me reported viability index for `CCCCCCc1cc2cc(-c3nc4ccccc4[nH]3)c(=Nc3ccccc3C)oc2cc1O` , tested with Plasmodium falciparum NF54 gametocytes.
output: 0.601

----------
# reported viability index; entries follow
Tested on: Plasmodium falciparum NF54 gametocytes
Test: viability index relative to DMSO control (fraction); higher = less gametocyte killing
Conditions: gametocyte stage: Stage III viability index; 12.5 µM; incubation time: 72 h
// keep it numeric: no unit symbol after the value

compound=O=C(Nc1ccccc1O)c1ccc(-c2ccc(Cl)cc2Cl)o1 assay_endpoint="viability index" observed_result=0.6
compound="COc1ccc(C(O)(CCC(C)C)C(CN2CCOCC2)c2ccc(Cl)cc2)cc1 (stereo not drawn)" assay_endpoint="viability index" observed_result=1.12
compound=O=C(Nc1ccc(N2CCN(Cc3ccccc3)CC2)cc1)c1cccs1 assay_endpoint="viability index" observed_result=0.795
compound="CCCC(c1nnnn1C1CCCCC1)N1CCN(C(=O)c2ccco2)CC1 (stereo not drawn)" assay_endpoint="viability index" observed_result=1.01

input: Tell me reported viability index for `CCOc1ccc(CCNC(=O)c2cccs2)cc1OCC` , tested with Plasmodium falciparum NF54 gametocytes.
output: 1.1

input: Tell me reported viability index for `CCOc1ccc2nc(C)cc(Nc3ccc(N(C)C)cc3)c2c1` , tested with Plasmodium falciparum NF54 gametocytes.
output: 0.868

input: Tell me reported viability index for `CCCc1c(CC)c(=N)c2ccccc2n1C` , tested with Plasmodium falciparum NF54 gametocytes.
output: 1.09

input: Tell me reported viability index for COc1ccc(C(C)=O)cc1N1C(=O)C2C(C1=O)C1(c3ccccc3)C(=O)C2(c2ccccc2)C(c2ccc(C)cc2)=C1c1ccc(C)cc1 (stereo not drawn) , tested with Plasmodium falciparum NF54 gametocytes.
output: 1.01

input: Tell me reported viability index for `N=c1c2ccccc2nnn1-c1cccc(C(F)(F)F)c1` , tested with Plasmodium falciparum NF54 gametocytes.
output: 1.02

input: Tell me reported viability index for `CCN1CCN(c2cc(C)c3cc(NC(=O)c4ccc(OC)c(OC)c4)ccc3n2)CC1` , tested with Plasmodium falciparum NF54 gametocytes.
output: 1.04

input: Tell me reported viability index for CCCCCCn1c(=N)n(CC(O)COc2cccc(C)c2)c2ccccc21 (stereo not drawn) , tested with Plasmodium falciparum NF54 gametocytes.
output: 0.0828

input: Tell me reported viability index for `COc1ccc(C(=O)Nc2nonc2-c2ccc(OC)c(OC)c2)cc1Cl` , tested with Plasmodium falciparum NF54 gametocytes.
output: 0.487

input: Tell me reported viability index for `COc1ccc(-c2c(C)nn3c(N)c(C#N)cnc23)cc1OC` , tested with Plasmodium falciparum NF54 gametocytes.
output: 0.0325

input: Tell me reported viability index for `Cc1[nH]c(-c2ccc(F)cc2)cc1C(=O)NC1CCN(Cc2ccccc2)CC1` , tested with Plasmodium falciparum NF54 gametocytes.
output: 0.744

input: Tell me reported viability index for `Cc1nc2ccccc2c(O)c1CC=C(Cl)Cl` , tested with Plasmodium falciparum NF54 gametocytes.
output: 0.897

input: Tell me reported viability index for `O=C(Nc1ccsc1C(=O)NC1CCCCC1)c1ccc(F)cc1` , tested with Plasmodium falciparum NF54 gametocytes.
output: 0.965
